Biological target: STING WT: His-TVMV-S-hSTING(155-341)-H232R (Homo sapiens, UniProt Q86WV6, H232R)
Construct: His-TVMV-S-hSTING(155-341)-H232R
Sequence (Q86WV6 with tags, fused parts or gaps H232R): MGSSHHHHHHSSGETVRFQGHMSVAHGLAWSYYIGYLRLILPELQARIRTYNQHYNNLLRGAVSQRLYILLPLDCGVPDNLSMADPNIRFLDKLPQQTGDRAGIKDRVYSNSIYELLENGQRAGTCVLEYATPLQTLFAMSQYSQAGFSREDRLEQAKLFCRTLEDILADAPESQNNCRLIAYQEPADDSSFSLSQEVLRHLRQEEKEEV
Experiment: STING HTRF binding assay (time resolved FRET competition), STING WT
Conditions: 20 nM His-tagged STING cytoplasmic domain, 200 nM fluorescein-labeled cGAMP analog probe, one hour; read-out: HTRF Binding Assays IC50 STING WT
pIC50: −log10 of the molar value.

# compound, assay.system, pIC50
data = [
    ("NC(=O)c1cccc2c1nnn2[C@@H]1C[C@@H]2COP(O)(=S)O[C@H]3[C@@H](F)[C@H](n4cnc5c(N)ncnc54)O[C@@H]3COP(O)(=S)OC[C@H]21 (single isomer, unassigned) [Example 13-4]", "STING WT: His-TVMV-S-hSTING(155-341)-H232R (Homo sapiens, UniProt Q86WV6, H232R)", 5.52),
    ("Nc1nc2c(ncn2[C@@H]2C[C@@H]3COP(O)(=S)O[C@H]4[C@@H](F)[C@H](n5cnc6c(N)ncnc65)O[C@@H]4COP(O)(=S)OC[C@H]32)c(=O)[nH]1 (single isomer, unassigned) [Example 18-2]", "STING WT: His-TVMV-S-hSTING(155-341)-H232R (Homo sapiens, UniProt Q86WV6, H232R)", 6.82),
    ("NC(=O)c1cccc2c1nnn2[C@@H]1O[C@@H]2COP(O)(=S)OC[C@@H]3[C@@H](COP(O)(=S)O[C@@H]1[C@@H]2F)C[C@H]3n1cnc2c(N)ncnc21 (single isomer, unassigned) [Example 11-1]", "STING WT: His-TVMV-S-hSTING(155-341)-H232R (Homo sapiens, UniProt Q86WV6, H232R)", 4.69),
    ("Nc1ncnc2c1ncn2[C@@H]1O[C@@H]2COP(O)(=S)OC[C@@H]3[C@@H](COP(O)(=S)O[C@H]2[C@H]1F)C[C@H]3n1cnc2c(O)nc3nccn3c21 (single isomer, unassigned) [Example 3-2]", "STING WT: His-TVMV-S-hSTING(155-341)-H232R (Homo sapiens, UniProt Q86WV6, H232R)", 5.40),
]
